PROCEDURE_TEXT: soluble on expression in E. coli; label from the status in PepcDB or PDB records

>  <SEQUENCE_TEXT>
MRIPRIYHPISLENQTQCYLSEDAANHVARVLRMTEGEQLELFDGSNHIYPAKIIESNKKSVKVEILGRELADKESHLKIHLGQVISRGERMEFTIQKSVELGVNVITPLWSERCGVKLDAERMDKKIQQWQKIAIAACEQCGRNIVPEIRPLMKLQDWCAENDGALKLNLHPRAHYSIKTLPTIPAGGVRLLIGSEGGLSAQEIAQTEQQGFTEILLGKRVLRTETASLAAISALQICFGDLGEAAAAAALEHHHHHH

>  <soluble on expression in E. coli>
soluble

$$$$
>  <SEQUENCE_TEXT>
MGSDFDHLVNSLSDVELLNLFIQSCSQTTINGVPVPRFPPEEIQKQFVGASYEHALYEAYLFYRHIKEYAQNLGVPLNKESKVLDFGCGWGRIIRFLFKDASDQNLLGIDVDPAMITLCNETLGRGIYKTASPHPPVEFISDNSLDIIFAYSVFSHLSEATAENWVKEFSRVLRPGGIFIATTQARYFLDFCQQFQEHPELIQTGWHKTLSQAFPDIHRAISDYENGKFVHSPTGAGDVRNSSFYGETVIPRTYIENHYEKYLKLQDFFDDVNRLPQALFVLQKILEHHHHHH

>  <soluble on expression in E. coli>
soluble

$$$$
